# Test system: SF-295 CNS
# Test summary: NCI tumour cell line growth inhibition, 48 h; in the data active = GI50 below about 0.43 µM; inactive = the rest
Respond using exactly one of the listed classes: TRUE for active, FALSE for inactive

1) C[C@@H]1COCCN1c1cc(C2(O)C[C@H]3CC[C@@H](C2)O3)c2cnn(-c3ccn[nH]3)c2n1 (stereo not given in full)
TRUE
2) O=C1OCC2=C1C(c1ccccc1)c1cc3c(cc1N2CCO)OCCO3 (stereo not given)
TRUE

Ask: For this compound, state the assay outcome: C=C1C(=O)O[C@H]2[C@H]1CC/C(COC(=O)NCc1ccc(Cn3c(=O)sn(-c4ccccc4)c3=O)cc1)=C\CC[C@@]1(C)O[C@@H]21
Reply: FALSE

Ask: For this compound, state the assay outcome: CC(=O)c1nc2ccccc2n1CC(=O)c1cccc(Cl)c1
Reply: FALSE

Ask: For this compound, state the assay outcome: COc1c(B(O)O)cc(F)cc1-c1nc2ccc3[nH]ncc3c2c2c1CCCC2
Reply: FALSE

Ask: For this compound, state the assay outcome: COC(=O)C(C)NC(=O)c1ccccc1I(OS(=O)(=O)C(F)(F)F)c1ccccc1 (stereo not given)
Reply: FALSE

Ask: For this compound, state the assay outcome: Cc1cc(I)cc(CN(C)CCCN2CCN(C)CC2)c1O
Reply: FALSE

Ask: For this compound, state the assay outcome: CN(C)/N=N/c1nc[nH]c1C(N)=O
Reply: FALSE

Ask: For this compound, state the assay outcome: CC(=O)c1cc(O)c2ccccc2c1O
Reply: FALSE

Ask: For this compound, state the assay outcome: CCSc1ccc(C2C(Br)C(=O)N2c2cc(OC)c(OC)c(OC)c2)cc1 (stereo not given)
Reply: TRUE

Ask: For this compound, state the assay outcome: COc1cc(-c2csc(NC(=O)Nc3cc(Cl)cc(Cl)c3)n2)cc(OC)c1OC
Reply: FALSE

Ask: For this compound, state the assay outcome: CCN(CC)c1ccc(/C=C/C=C2\NC(=O)NC2=O)cc1
Reply: FALSE

Ask: For this compound, state the assay outcome: O=C(NC(=S)Nc1cc(Cl)ccc1O)c1cccc(Br)c1
Reply: FALSE

Ask: For this compound, state the assay outcome: N.N.O=P([O-])([O-])C1(P(=O)([O-])[O-])CCCCCN1.[Pt+2]
Reply: FALSE

Ask: For this compound, state the assay outcome: COc1ccc(Cn2cc3c(c2-c2cc(OC)c(OC)c(OC)c2)CCc2cnoc2-3)cc1
Reply: TRUE
